- Tested on: Staphylococcus epidermidis
- experiment.summary: Antimicrobial activity against Staphylococcus epidermidis
- Assay type: functional
- applied.conditions: Staphylococcus epidermidis; read-out: MIC
Where a SMILES comes first, the peptide text is derived from it. [ ]: non-standard residue; d: D form. The star is where a group is joined. X1 = CC(C)C[C@@H](C[N+]1=C2CCCN2CCC1)N*; Pip = O=C(O)[C@@H]1CCCCN1; Iva = CC[C@](C)(N)C(=O)O; Aib = CC(C)(N)C(=O)O; βAla = NCCC(=O)O
Measured MIC accompanies every entry in the list below.
The reply should contain only the number, in µg/mL.

Here are 2 compounds together with their reported answers.
>  <compound>
CC[C@H](C)[C@H](NC(=O)[C@H](CC(C)C)N(C)C(=O)[C@@H](NC(=O)[C@@H](CCC(N)=O)NC(C)=O)[C@@H](C)CC)C(=O)N(C)[C@H](C(=O)N(C)[C@H](C(=O)N(C)[C@H](C(=O)N(C)[C@H](C(=O)O)[C@@H](C)CC)[C@@H](C)CC)[C@@H](C)CC)C(C)C

>  <measurement.unit>
µg/mL

>  <MIC>
25

$$$$
>  <compound>
CC[C@](C)(NC(=O)[C@H](CC(C)C)NC(=O)[C@H](C)NC(=O)C(C)(C)NC(=O)[C@@H]1CCCCN1C(=O)C(C)(C)NC(=O)C(C)(C)NC(=O)CNC(=O)CCNC(=O)[C@H](CC(C)C)NC(=O)C(C)(C)NC(=O)[C@](C)(CC)NC(=O)[C@@H]1CCCCN1C(=O)C(C)(C)NC(=O)[C@@H]1CCCCN1C(C)=O)C(=O)N[C@@H](CC(C)C)C[N+]1=C2CCCN2CCC1 [EFRAPEPTIN G] (Ac-[Pip][Aib][Pip][Iva][Aib]L[βAla]G[Aib][Aib][Pip][Aib]AL[Iva]-X1)

>  <measurement.unit>
µg/mL

>  <MIC>
80

$$$$

Item under review: CN[C@H](CC(C)C)C(=O)N[C@H]1C(=O)N[C@@H](CC(N)=O)C(=O)N[C@H]2C(=O)N[C@H]3C(=O)N[C@H](C(=O)N[C@H](C(=O)O)c4cc(O)cc(O)c4-c4cc3ccc4O)[C@H](O)c3ccc(c(Cl)c3)Oc3cc2cc(c3O[C@@H]2O[C@H](CO)[C@@H](O)[C@H](O)[C@H]2O[C@H]2C[C@](C)(N)[C@H](O)[C@H](C)O2)Oc2ccc(cc2Cl)[C@H]1O [VANCOMYCIN] . Reported MIC?
0.63

Data provenance is ChEMBL document CHEMBL1157225.
